Consider the following molecules and their measured growth readings.
test system: TK-10 renal; experiment: NCI-60 one-dose screen, 48 h (100 = growth as untreated, 0 = no growth, -100 = all killed); settings: 10 µM unless noted
Compounds without any hit were thinned out: in the full panel of roughly 83,000, 20% have a hit. Activity calls are given as the source filed them. How the source made its calls: active means growth percent below 10; inactive means the rest.
PROPERTY NAME: growth

>>> result("COc1cc(-c2nc3sc4c(c3c(=O)[nH]2)CCCCCC4)cc(OC)c1OC")
"47.6% (inactive)"
>>> result("CCN1CCN(c2nc(NNC(=O)Cc3ccccc3)nc(N3CCN(C(c4ccccc4)c4ccccc4)CC3)n2)CC1")
"89.1% (inactive)"
>>> result("O=C1c2cccc3c([N+](=O)[O-])ccc(c23)C(=O)N1CCCCl")
"-50.2% [100 µM] (active)"
>>> result("Cc1ncc(C(=O)Nc2ccc(CN3CCN(C)CC3)c(C(F)(F)F)c2)cc1C#Cc1cncc2ncccc12")
"82.6% (inactive)"
>>> result("COc1ccc2c(c1)[n+](=O)c(C(=O)/C=C/c1cc(OC)c(OC)c(OC)c1)c(C)n2[O-]")
"120% (inactive)"
>>> result("O=C(c1ccccc1)c1ccc(Oc2ccc([N+](=O)[O-])cc2[N+](=O)[O-])cc1")
"83.4% (inactive)"
>>> result("Cc1cc(Br)c(C)cc1Br")
"105% (inactive)"
>>> result("O=c1[nH]cc(Nc2cc(Cl)c3nonc3c2[N+](=O)[O-])c(=O)[nH]1")
"125% (inactive)"
>>> result("COc1cc(/C=C/C(=O)c2c(C)n([O-])c3ccc(Cl)cc3[n+]2=O)cc(OC)c1OC")
"103% (inactive)"
>>> result("O=C(Nc1ccc2c(c1)C(=O)c1ccccc1-2)c1ccccc1")
"46.9% (inactive)"
>>> result("COCCOCCOCCOCCOc1ccc2c(c1)C(=O)c1nc3ncccc3c(=O)n1-2")
"-77.4% (active)"
>>> result("COc1cc(OC)c2c(c1Cl)O[C@]1(C2=O)C(OCc2ccccc2)=CC(=O)C[C@H]1C")
"15.9% (inactive)"
>>> result("O=C(O)CNC(=O)C1(N2C(=O)c3ccccc3C2=O)CCCC1")
"99.6% (inactive)"

Data provenance is PubChem BioAssay (NCI).
